Numbers sourced from patent US20240400635A1.

Documented FGF1 receptor potency [EC50] nM 0.1% HSA across a set of binders
target_system: FGF receptor/BKL complex (human, UniProt Q86Z14 1-1044)
Sequence (Q86Z14 whole entry, one chain of several): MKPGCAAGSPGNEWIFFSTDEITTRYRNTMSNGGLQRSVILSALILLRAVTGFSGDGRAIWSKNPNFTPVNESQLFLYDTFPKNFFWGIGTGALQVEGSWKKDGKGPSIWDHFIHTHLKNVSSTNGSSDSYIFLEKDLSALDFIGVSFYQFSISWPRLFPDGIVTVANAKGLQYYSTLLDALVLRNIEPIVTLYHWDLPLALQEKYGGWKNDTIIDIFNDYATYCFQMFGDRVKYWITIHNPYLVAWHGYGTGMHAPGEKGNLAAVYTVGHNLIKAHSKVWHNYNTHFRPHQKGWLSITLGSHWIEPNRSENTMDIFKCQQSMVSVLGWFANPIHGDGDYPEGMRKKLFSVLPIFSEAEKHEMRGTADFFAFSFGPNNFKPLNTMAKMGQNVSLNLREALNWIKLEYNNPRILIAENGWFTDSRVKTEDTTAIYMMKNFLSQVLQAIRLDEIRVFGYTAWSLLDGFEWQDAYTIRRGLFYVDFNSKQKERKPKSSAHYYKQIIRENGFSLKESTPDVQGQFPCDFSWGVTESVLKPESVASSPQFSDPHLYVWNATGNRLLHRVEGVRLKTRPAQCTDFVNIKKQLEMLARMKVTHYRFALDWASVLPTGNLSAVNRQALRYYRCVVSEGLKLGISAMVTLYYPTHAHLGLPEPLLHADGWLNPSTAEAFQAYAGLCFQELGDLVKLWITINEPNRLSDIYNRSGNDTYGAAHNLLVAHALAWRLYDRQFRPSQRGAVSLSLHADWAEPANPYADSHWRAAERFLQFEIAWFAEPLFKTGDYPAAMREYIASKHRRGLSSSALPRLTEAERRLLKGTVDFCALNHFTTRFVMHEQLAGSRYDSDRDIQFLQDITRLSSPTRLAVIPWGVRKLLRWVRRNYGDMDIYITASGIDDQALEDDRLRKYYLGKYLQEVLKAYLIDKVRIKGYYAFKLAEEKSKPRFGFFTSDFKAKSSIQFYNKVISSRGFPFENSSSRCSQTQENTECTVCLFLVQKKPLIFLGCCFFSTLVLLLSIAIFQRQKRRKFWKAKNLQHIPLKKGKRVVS
protocol_details: cell-based or functional assay
Kindly provide the numeric value in nM only, without the unit symbol.

binder	FGF1 receptor potency [EC50] nM 0.1% HSA (nM)
S{Beta-27}-[2-[2-[[2-[2-[2-[[2-[2-[2-[[(4S)-4-carboxy-4-(17-carboxyheptadecanoyl-amino)butanoyl]amino]ethoxy]ethoxy]acetyl]amino]ethoxy]ethoxy]acetyl]amino]-eth … (ligand, Cys27 of the GLP-1 part (GLP-1(7-37) numbering; residue 21 of the chain) S-alkylated with substituent Chem. 7) HGEGTFTSDVSSYLEEQAAKCFIAWLVKGGGGAQPGAQPGAQPGAQPAHPIPDSSPLLQFGGQVRQRYLYTDDAQQTEAHLEIREDGTVGGAADQSPESLLQLKALKPGVIQILGVKTSRFLCQRPDGALYGSLHFDPEACSFRELLLEDGYNVYQSEAHGLPLHLPGQKSPHRDPAPRGPARFLPLPGLPPALPEPPGILAPQPPDVGSSDPLSLVGGSQGRSPSYAS	0.38
S{Beta-27}-[2-[2-[[2-[2-[2-[[2-[2-[2-[[(4S)-4-carboxy-4-(17-carboxyheptadecanoyl-amino)butanoyl]amino]ethoxy]ethoxy]acetyl]amino]ethoxy]ethoxy]acetyl]amino]-eth … (ligand, Cys27 of the GLP-1 part (GLP-1(7-37) numbering; residue 21 of the chain) S-alkylated with substituent Chem. 7) HGEGTFTSDVSSYLEEQAAKCFIAWLVKGGGGAQPGAQPGAQPGAQPGAQPGAQPGAQPGAQPAHPIPDSSPLLQFGGQVRQRYLYTDDAQQTEAHLEIREDGTVGGAADQSPESLLQLKALKPGVIQILGVKTSRFLCQRPDGALYGSLHFDPEACSFRELLLEDGYNVYQSEAHGLPLHLPGQKSPHRDPAPRGPARFLPLPGLPPALPEPPGILAPQPPDVGSSDPLSLVGGSQGRSPSYAS	0.45

Please turn your attention to the following entry.
What FGF1 receptor potency [EC50] nM 0.1% HSA value was documented for this binder, [8G, 22E, 36G]GLP-1(7-37)-(GAQP)x2, … (ligand, Cys of the spacer (residue 40 of the chain) S-alkylated with substituent Chem. 7) HGEGTFTSDVSSYLEEQAAKEFIAWLVKGGGGAQPGAQPCGAQPGAQPAHPIPDSSPLLQFGGQVRQRYLYTDDAQQTEAHLEIREDGTVGGAADQSPESLLQLKALKPGVIQILGVKTSRFLCQRPDGALYGSLHFDPEACSFRELLLEDGYNVYQSEAHGLPLHLPGQKSPHRDPAPRGPARFLPLPGLPPALPEPPGILAPQPPDVGSSDPLSLVGGSQGRSPSYAS ?
1.36
